Recorded values, source PubChem BioAssay AID1159580.

protocol-summary: chemical genetic growth profiling, strain panel (AID 1159580);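 further: tested at 20 µM; growth read once vehicle control cultures reached saturation at 30 °C; 1 = growth at the plate median or of vehicle wells; lower values mean less growth of the strain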
applied-conditions: S. cerevisiae deletion strains, growth OD, locus YDL192W, strain arf1, stronger effect = lower value
About 2,000 (36%) of roughly 5,500 compounds were called active. About 18% were inconclusive and are not listed. Some of the results follow.
Recorded normalized growth, one value per entry.

molecule: CCC(C)C(=O)O[C@@H]1C[C@@]2(C)[C@H](c3ccoc3)OC(=O)CC23OC2(C)OC34[C@H](OC(=O)C(C)C)[C@@]3(O)[C@@H](OC(=O)C5(C)OC5C)[C@@]5(C)C[C@]3(O)[C@@](C)([C@H]5CC(=O)OC)C14O2 (stereo partly specified)
normalized growth: 0.987
//
molecule: COC(=O)/C=C/C(C)=C/C=C/C(C)=C/C=C/C=C(C)/C=C/C=C(C)/C=C/C(=O)O
normalized growth: 1.01
//
molecule: COc1ccc(-c2coc3cc(O)ccc3c2=O)c(OC)c1O
normalized growth: 0.984
//
molecule: COC(=O)CC1C2(C)CC34OC5(C)OC6(C7/C(=C(/O)C(C)C)C(=O)OC(c8ccoc8)C7(C)C(OC(=O)C(C)C)C(OC)C6(O5)C13C)C(OC)C4(OC)C2OC(C)=O (stereo unspecified)
normalized growth: 0.994
//
molecule: CCn1cc(C(=O)O)c(=O)c2cc(F)c(N3CCNC(C)C3)c(F)c21 (stereo unspecified)
normalized growth: 0.992
//
molecule: CN1CC(=O)N=C1N
normalized growth: 1
//
molecule: CN(C)CCOC(c1ccc(Cl)cc1)c1ccccn1 (stereo unspecified)
normalized growth: 1.01
//
molecule: O=C1NCC2(CCN(CCc3ccccc3)CC2)O1
normalized growth: 1.01
//
molecule: CC1COc2c(N3CCN(C)CC3)c(F)cc3c(=O)c(C(=O)O)cn1c23 (stereo unspecified)
normalized growth: 1.01
//
molecule: CCN(CC)Cc1ccc(Nc2ccnc3cc(Cl)ccc23)cc1O
normalized growth: 0.999
//
molecule: Clc1ccc(C(OCCN2CCCCC2)c2ccccc2)cc1 (stereo unspecified)
normalized growth: 1.01
//
molecule: CCC(C)C(=O)O[C@@H]1C[C@@]2(C)[C@H](c3ccoc3)OC(=O)CC23OC2(C)O[C@]14[C@]1(C)[C@@H](CC(=O)OC)C5(C)CC1(O)[C@](O)(C5OC(=O)C1(C)OC1C)[C@@H](OC(C)=O)[C@]34O2 (stereo partly specified)
normalized growth: 0.995
//
molecule: CCN1CCCC(OC(=O)C(c2ccccc2)c2ccccc2)C1 (stereo unspecified)
normalized growth: 1.01
//
molecule: C#CCN(C)Cc1ccccc1
normalized growth: 1.02
//
molecule: COc1cc([C@@H]2c3cc4c(cc3C(OC3O[C@@H]5COC(C)O[C@H]5[C@H](O)[C@H]3O)C3COC(=O)[C@@H]32)OCO4)cc(OC)c1O (stereo partly specified)
normalized growth: 0.991
//
molecule: COc1c(N2CCNC(C)C2)c(F)cc2c(=O)c(C(=O)O)cn(C3CC3)c12 (stereo unspecified)
normalized growth: 1.02
//
molecule: COc1cc2nc(N(C)CCCNC(=O)C3CCCO3)nc(N)c2cc1OC (stereo unspecified)
normalized growth: 1.01
//
molecule: CCC[C@H](N[C@@H](C)C(=O)N1[C@H](C(=O)O)C[C@@H]2CCCC[C@@H]21)C(=O)OCC
normalized growth: 1.02
//
molecule: CN1CCC(OC(c2ccccc2)c2ccccc2)CC1
normalized growth: 0.983
//
molecule: C[C@H]1COc2c(N3CCN(C)CC3)c(F)cc3c(=O)c(C(=O)O)cn1c23
normalized growth: 1.02
//
molecule: N[C@@H](Cc1ccc(N(CCCl)CCCl)cc1)C(=O)O
normalized growth: 0.973
//
molecule: O=C(O)CCCc1ccc(N(CCCl)CCCl)cc1
normalized growth: 0.984
//
molecule: CNC(=O)O/N=C(\C)SC
normalized growth: 0.981
//
molecule: COc1ccccc1-c1coc2cc(O)ccc2c1=O
normalized growth: 1
//
molecule: CN1C2C[C@H](OC(=O)[C@H](CO)c3ccccc3)C[C@H]1[C@@H](O)C2
normalized growth: 0.995
//
molecule: CN1CC(CO)=C[C@@H]2c3cccc4[nH]cc(c34)C[C@H]21
normalized growth: 1.01
